Test: Plasma pharmacokinetics of pamiparib (LC-MS/MS, non-compartmental)
Parameters: species or system human
Settings: human, in vivo, 20 mg, AUC0-inf, Single Dose (Cycle 1 Day 1)
Property Label: AUC(0-inf)

{"Structure Smiles String": "C[C@]12CCCN1CC1=NNC(=O)c3cc(F)cc4[nH]c2c1c34", "Measurement": "7840 ng·h/mL"}

---

Experiment: Plasma pharmacokinetics of pamiparib (LC-MS/MS, non-compartmental)
Set-up: species or system human
Conditions: human, in vivo, 20 mg, t1/2, Single Dose (Cycle 1 Day 1)

{"Compound": "C[C@]12CCCN1CC1=NNC(=O)c3cc(F)cc4[nH]c2c1c34 [pamiparib]", "Display Unit": "h", "half-life": 8.53}

---

Test: Plasma pharmacokinetics of pamiparib (LC-MS/MS, non-compartmental)
Design: species or system human
Settings: human, in vivo; QD 120 mg, N 8; read-out: AUC0-9, Single Dose (Cycle 1 Day 1)

{"Compound": "C[C@]12CCCN1CC1=NNC(=O)c3cc(F)cc4[nH]c2c1c34 [pamiparib]", "AUC0-9": "21700 ng·h/mL"}

---

Test: Plasma pharmacokinetics of pamiparib (LC-MS/MS, non-compartmental)
Set-up: species or system human
Conditions: human, in vivo, 80 mg, Cmax, Steady State (Cycle 1 Day 17)
Property Label: Cmax (ng/mL)

{"Structure Smiles String": "C[C@]12CCCN1CC1=NNC(=O)c3cc(F)cc4[nH]c2c1c34", "Measurement": 4350}

---

Test: Plasma pharmacokinetics of pamiparib (LC-MS/MS, non-compartmental)
Set-up: species or system human
Details: human, in vivo, 5 mg, Tmax, Steady State (Cycle 1 Day 17)

{"Structure Smiles String": "C[C@]12CCCN1CC1=NNC(=O)c3cc(F)cc4[nH]c2c1c34", "Tmax": "31.8 min"}

---

Assay: Plasma pharmacokinetics of pamiparib (LC-MS/MS, non-compartmental)
Set-up: species or system human
Conditions: human, in vivo, 160 mg, Vz/F, Single Dose (Cycle 1 Day 1)

{"Structure Smiles String": "C[C@]12CCCN1CC1=NNC(=O)c3cc(F)cc4[nH]c2c1c34", "Display Unit": "L", "Vd/F": 34.5}

---

Experiment: Plasma pharmacokinetics of pamiparib (LC-MS/MS, non-compartmental)
Design: species or system human
Settings: human, in vivo, 2.5 mg, Cmax, Steady State (Cycle 1 Day 17)

{"Structure Smiles String": "C[C@]12CCCN1CC1=NNC(=O)c3cc(F)cc4[nH]c2c1c34", "Cmax / µg/mL": 0.182}

---

Test: Plasma pharmacokinetics of pamiparib (LC-MS/MS, non-compartmental)
Set-up: species or system human
Settings: human, in vivo, 40 mg, AUC0-9, Steady State (Cycle 1 Day 17)

{"Structure Smiles String": "C[C@]12CCCN1CC1=NNC(=O)c3cc(F)cc4[nH]c2c1c34", "AUC(0-t)": "18300 ng·h/mL"}

---

Assay: Plasma pharmacokinetics of pamiparib (LC-MS/MS, non-compartmental)
Set-up: species or system human
Conditions: human, in vivo, 40 mg, AUC0-inf, Single Dose (Cycle 1 Day 1)
Property Label: AUC(0-inf) (ng·h/mL)

{"Structure Smiles String": "C[C@]12CCCN1CC1=NNC(=O)c3cc(F)cc4[nH]c2c1c34", "Property Label": "AUC(0-inf)", "Display Unit": "ng·h/mL", "Measurement": 21900}
